Numbers sourced from patent US20220324835A1.

target: Cbl-b (Homo sapiens); assay: Cbl-b inhibition assay (Cbl-b activity assay, FRET, Biological Example 1; 100 mM NaCl, 60 nM Src kinase); type: biochemical; conditions: upper bound stated in text lists; read-out: IC50 values in the Cbl-b inhibition assay of Biological Example 1
quantity_name: IC50

Cn1cnnc1CC1(c2cccc(N3Cc4c(cc(N5CCOC5=O)cc4C(F)(F)F)C3=O)c2)COC1; ≤ 100 nM
Cn1cnnc1C(F)(F)[C@](C)(F)c1cccc(N2Cc3c(cc(CN4CC[C@H](C#N)C4)cc3C(F)(F)F)C2=O)c1; ≤ 100 nM
Cn1cnnc1CC1(c2cccc(N3Cc4c(cc(CN5CC[C@@H](F)[C@H](F)C5)cc4C(F)(F)F)C3=O)c2)COC1 [Example 626b]; ≤ 100 nM
Cn1cnnc1CC1(c2cccc(NC(=O)c3csc(C(F)(F)F)n3)c2)COC1; ≤ 100 nM
C[C@H](Cc1nncn1C)c1cccc(N2Cc3c(cc(CN4CC(O)C(F)(F)C4)cc3C(F)(F)F)C2=O)c1 (some centres unmarked); ≤ 100 nM
C[C@H](Cc1nncn1C)c1cccc(N2Cc3c(cc(C(C)(C)O)cc3C(F)(F)F)C2=O)c1; ≤ 100 nM
Cn1cnnc1[C@@H](F)C1(c2cccc(N3Cc4c(cc(CN5CCC6(CC6)C5)cc4C(F)(F)F)C3=O)c2)COC1; ≤ 100 nM
C[C@@H]1[C@@H](c2nncn2C)[C@H]1c1cccc(N2Cc3c(cccc3C(F)(F)F)C2=O)c1; ≤ 100 nM
CO[C@@H]1CCN(Cc2cc3c(c(C(F)(F)F)c2)CN(c2cccc(C4(Cc5nncn5C)COC4)c2)C3=O)C[C@@H]1F (relative stereo); ≤ 100 nM
C[C@H](Sc1nncn1C)c1ccnc(NC(=O)c2cc(C3CC3)cc(C(F)(F)F)n2)c1; ≤ 1000 nM
Cn1cnnc1CC1(c2cccc(N3Cc4c(cc(CN5CCOC(CCO)C5)cc4C(F)(F)F)C3=O)c2)COC1 (centres unmarked); ≤ 100 nM

* * *

compounds and their reported fold induction at 4 µM
system: T-cell; test: IL-2 secretion from T-cells co-stimulated with anti-CD3 and anti-CD28 antibody (Biological Example 2); assay type: cell-based, human; conditions: Homo sapiens, T-cell, 4 μM compound; primary human total T-cells; baseline = anti-CD3/anti-CD28 stimulated cells without inhibitor; read-out: IL-2 secretion, Anti-CD3/Anti-CD28 stimulation, fold change over baseline
quantity_name: fold induction at 4 µM

C[C@H](Cc1nncn1C)c1cccc(N2Cc3c(cc(CN4CC(O)C4)cc3C(F)(F)F)C2=O)c1; > 7.5
Cc1c[nH]nc1C[C@@H](C)c1cccc(N2Cc3c(cc(C(=O)N4CCC(O)C4)cc3C(F)(F)F)C2=O)c1 (stereo in doubt); > 7.5
C[C@H](Cc1nncn1C)c1cccc(N2Cc3c(cc(CN4CCC(F)(F)C4)cc3C(F)(F)F)C2=O)c1; > 7.5

* * *

molecules and their reported IC50
molecular target: Cbl-b (Homo sapiens, UniProt Q13191); experiment: Cbl-b inhibition assay (Cbl-b activity assay, FRET, Biological Example 1; 100 mM NaCl, 60 nM Src kinase); assay type: biochemical; settings: upper bound stated in text lists; read-out: IC50 values in the Cbl-b inhibition assay of Biological Example 1
Sequence (Q13191 36-427): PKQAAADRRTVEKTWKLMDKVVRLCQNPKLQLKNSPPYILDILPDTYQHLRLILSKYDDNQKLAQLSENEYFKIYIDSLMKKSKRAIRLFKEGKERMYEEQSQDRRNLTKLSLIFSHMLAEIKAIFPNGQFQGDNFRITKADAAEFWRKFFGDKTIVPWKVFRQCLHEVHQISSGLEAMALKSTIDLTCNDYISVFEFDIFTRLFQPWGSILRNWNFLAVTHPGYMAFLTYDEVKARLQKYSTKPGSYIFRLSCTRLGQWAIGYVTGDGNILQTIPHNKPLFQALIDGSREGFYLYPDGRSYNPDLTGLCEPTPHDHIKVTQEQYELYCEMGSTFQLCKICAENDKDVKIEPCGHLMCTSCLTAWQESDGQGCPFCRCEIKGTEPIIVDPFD
quantity_name: IC50

C[C@H](Cc1nncn1C)c1cccc(N2Cc3c(cc(C4CC4)cc3C(F)(F)F)C2=O)c1 [Compound 260]; ≤ 100 nM
C[C@H](Cc1nncn1C1CC1)c1cccc(N2Cc3c(cccc3C(F)(F)F)C2=O)c1 [Compound 265]; ≤ 1000 nM
C[C@H](Cc1nncn1C)c1cccc(N2Cc3c(cc(CN4CCC(F)(F)C4)cc3C(F)(F)F)C2=O)c1 [Compound 396]; ≤ 100 nM
C[C@H](Sc1nncn1C)c1ccnc(NC(=O)c2cc3c(cn2)CCCC3)c1 [Compound 109]; ≤ 10000 nM
Cn1cnnc1CC1(c2cccc(N3Cc4c(cc(CN5CCc6ccncc6C5)cc4C(F)(F)F)C3=O)c2)COC1 [Example 638]; ≤ 100 nM
C[C@H](Cc1nncn1C)c1cccc(NC(=O)c2cc(C(=O)N3C[C@@H](O)C[C@H]3C)ccn2)c1 [Compound 224]; ≤ 500 nM
C[C@H](Cc1nncn1C)c1cccc(N2Cc3c(cc(CN4CC[C@](C)(O)C4)cc3C(F)(F)F)C2=O)c1 [Compound 398]; ≤ 100 nM
Cn1cnnc1CC1(c2cccc(N3Cc4c(cc(CN5CCCC(F)(F)C5)cc4C(F)(F)F)C3=O)c2)COC1 [Example 693]; ≤ 100 nM
C[C@H](Sc1nncn1C)c1cccc(NC(=O)c2cccc(OC(F)(F)F)c2)c1 [Compound 79]; ≤ 10000 nM
Cc1conc1CC1(c2cccc(N3Cc4c(cc(CN5CCC6(CC6)C5)cc4C(F)(F)F)C3=O)c2)COC1 [Compound 535]; ≤ 100 nM
C[C@H](Cc1nncn1C)c1cccc(N2Cc3c(cc(CN4CC[C@H](O)C4)cc3C(F)(F)F)C2=O)c1 [Compound 394]; ≤ 100 nM
